- System: Nakaseomyces glabratus
- ASSAY_EXPLANATION: Antifungal activity against Candida glabrata 537 assessed as growth inhibition by automatic microplate reader analysis
- Format: functional
ATTRIBUTE_MEASURED: MIC80 (mg/L)
Just the number please, in mg/L, no unit attached.

Previously resolved entries follow.
Would you kindly share the measured MIC80 for CCC(C)n1ncn(-c2ccc(N3CCN(c4ccc(OCC5COC(Cn6cncn6)(c6ccc(Cl)cc6Cl)O5)cc4)CC3)cc2)c1=O (centres undefined) ?
2

Would you kindly share the measured MIC80 for CC(=O)N1CCN(c2ccc(OCC3COC(Cn4ccnc4)(c4ccc(Cl)cc4Cl)O3)cc2)CC1 (centres undefined) ?
0.125

Would you kindly share the measured MIC80 for C[C@@H](c1ncncc1F)[C@](O)(Cn1cncn1)c1ccc(F)cc1F ?
0.25

Would you kindly share the measured MIC80 for CN(C/C=C/C#CC(C)(C)C)Cc1cccc2ccccc12 ?
8

Would you kindly share the measured MIC80 for C/C=C/C=C/C=C/[C@H]1C[C@@H](O)C[C@H](O)[C@@H]1CO ?
16

Would you kindly share the measured MIC80 for C/C=C/C=C/C=C/[C@H]1C[C@@H](O)[C@H](O)C(=O)[C@@H]1CO ?
16

Turning to the following compound.
Would you kindly share the measured MIC80 for OC(Cn1cncn1)(Cn1cncn1)c1ccc(F)cc1F ?
2
